List of response (percent of control binding) values.
target: Guanine nucleotide-binding protein G(o) subunit alpha (Homo sapiens); assay: compounds changing RGS8 association with Galphao – biochemical, multiplexed bead flow cytometry, primary screen (AID 1423); details: at 10 µM, actives lie on both sides;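 also: Galphao activated as the GDP aluminium fluoride complex binding bead-coupled RGS8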
The whole screen tested about 220,000 compounds, of which about 750 (0.34%) were called active. The sample holds actives, similar compounds and a random draw of the others, so the mix is not that of the screen.
Express it in %; write the number only.

Some solved entries appear below for comparison.
1. CC(=O)c1cccc(-n2nnnc2SCC(=O)NNC(=O)C2CCCCC2)c1 :: 91.2
2. CCOc1cc(NC(=O)c2ccccn2)c(OCC)cc1NC(=O)c1ccc(OC)cc1 :: 103
3. Nc1ccc(C(=O)OCC(=O)NC2CCS(=O)(=O)C2)cc1[N+](=O)[O-] (configuration not stated) :: 6.98
4. CC(=O)c1ccc(N=C2SCCCN2C(=O)C2CCCCC2)cc1 :: 95.4
5. COc1ccc(S(=O)(=O)N2CCCCCC2)cc1C(=O)OCC(=O)Nc1cc(C)on1 :: 100
6. COc1ccc(OC)c(-n2c(-c3ccn[nH]3)n[nH]c2=S)c1 :: 98.6

compound O=C(COC(=O)/C=C/c1ccc2c(c1)OCO2)NC1CCS(=O)(=O)C1 (configuration not stated) , response (percent of control binding) observed: 99.8
